Here, each record is paired with measured half-life data.
# assay-procedure: Open-label, three-way, sequential, cross-over pharmacokinetic interaction study, plasma, non-compartmental analysis
# Format: in vivo, human (healthy Thai adults)
# details: both sexes, human, plasma, oral, LPV/r with 3-day artesunate-mefloquine (Period 3); median (95 % CI); read-out: t1/2z (converted)
Lab book: enter the figure in h, no units written.

smiles=Cc1cccc(C)c1OCC(=O)N[C@@H](Cc1ccccc1)[C@@H](O)C[C@H](Cc1ccccc1)NC(=O)[C@H](C(C)C)N1CCCNC1=O result_number=6.6

Switching to the query record.
Query: State the recorded half-life for this entry: CC(C)c1nc(CN(C)C(=O)N[C@H](C(=O)N[C@@H](Cc2ccccc2)C[C@H](O)[C@H](Cc2ccccc2)NC(=O)OCc2cncs2)C(C)C)cs1
Reply: 3.7
